- MEASUREMENT DESCRIPTION: Solubility test in simulated biological fluids (FaSSGF), UPLC
- Type: physicochemical
- TEST CONTEXT: Fasted-State Simulated Gastric Fluid (FaSSGF), fassgf or other biorelevant, thermodynamic from solid, pH 1.6, samples containing equal amounts of BBR
MEASURED PROPERTY: solubility (µg/mL)
One number for each entry, in µg/mL.

The reported value for COc1ccc2cc3[n+](cc2c1OC)CCc1cc2c(cc1-3)OCO2 [Reference 1, berberine] in terms of solubility is 113
